- Tested on: GV2 Zα (giant virus Zα domain) (giant virus (metagenome))
- METHOD_NOTES: MST
- MEASUREMENT_CONDITIONS: 20 mM NaPi pH 6.4, 100 mM KCl, 1 mM DTT, 0.5 mM EDTA (LiCl replaces KCl where noted); ITC 35 C; MST 25 C with 20 nM protein (labelling without DTT; competition …)
OUTCOME_MEASURE: Kd (µM)
Answers are plain numbers, in µM.

## Task Quick one: Kd for GGGAGGGCGGGAGGG [ALU-GQRNA] ?
## Result 1
